Target Or Test System: T1, 犬CD20 (canine CD20, B淋巴细胞抗原CD20, full length, wild type) (canine (dog), UniProt Q3C2E2 1-297)
T1 construct: Stably expressed from full-length cDNA on MDCK II (or HEK293) cells for flow cytometry and ADCC; naturally expressed on CLBL-1 canine lymphoma cells in the CDC assay; also called cCD20; MS4A1
T1 chain: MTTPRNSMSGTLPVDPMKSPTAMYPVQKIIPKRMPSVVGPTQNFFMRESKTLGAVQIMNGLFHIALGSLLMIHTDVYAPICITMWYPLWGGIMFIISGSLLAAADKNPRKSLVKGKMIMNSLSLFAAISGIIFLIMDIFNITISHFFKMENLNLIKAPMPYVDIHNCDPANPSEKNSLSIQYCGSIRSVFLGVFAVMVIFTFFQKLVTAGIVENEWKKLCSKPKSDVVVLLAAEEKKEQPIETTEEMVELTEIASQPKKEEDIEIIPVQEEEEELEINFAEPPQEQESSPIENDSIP
Run Description: flow cytometry, 10 ug/ml antibody on MDCK II cells expressing canine CD20 (Fig 3C)
Recorded Endpoint: binding result

binder="PMX071 (antibody, V domains shown) VH: EVHLVESGGDLVKPGGSLRLSCVASGITFNRYYMNWVRQTPGKGLQWVAYIDSGGSPTTYADAVKGRFTISRDNAKNTLYLQMNSLRAEDTAVYYCTSFDYWGQGTLVTVSS VL: SYVLTQLPSKNVTLKQPAHITCGGDNIGSKSVHWYQQKLGQAPILIIYYDTSRPTGIPERFSGANSGNTATLTISGALAEDEADYYCQVWDSSANVFGGGTHLTVL" recorded_measurement=binds
binder="PMX070 (antibody, V domains shown) VH: EMQLVESGGDLVKPGGSLRLSCVASGFTFSRYHMSWVRQAPGKGLQWVAYINSGGSPTNYADAVKGRFTISRDNAKNTLYLQMNSLRAEDTAVYYCTTYDQWGQGTLVTVSS VL: SYVLTQLPSKSVTLKQPAHITCGGDNIGSKSVHWYQQKLGQAPVLIIYYDSSRPTGIPERFSGANSGNTATLTISGALAEDEADYYCQVWDTSANVFGGGTHLTVL" recorded_measurement=binds
binder="PMX076 (antibody, V domains shown) VH: EVQLVESGGDLVKPGGSLRLSCVASGITFSRYYMNWVRQAPGKGLQWVAYIDSGGSPTTYADAVKGRFTISRDNAKKALYLQMNSLRAEDTAVYYCTSFDYWGQGTLVTVSS VL: SYVLTQLPSKNVTLKQPAHITCGGDNIGSKSVHWYQQKLGQAPVLIIYYDSSRPTGIPERFSGANSGNTATLTISGALAEDEADYFCQVWDSSANVFGGGTHLTVL" recorded_measurement=binds
